# subject_of_test: T1, ST2 on the effector cells (KU812, KU812/NF-κB-1#, HUVEC, HMC-1) (human, UniProt Q01638 19-556)
# T1 sequence (looked up): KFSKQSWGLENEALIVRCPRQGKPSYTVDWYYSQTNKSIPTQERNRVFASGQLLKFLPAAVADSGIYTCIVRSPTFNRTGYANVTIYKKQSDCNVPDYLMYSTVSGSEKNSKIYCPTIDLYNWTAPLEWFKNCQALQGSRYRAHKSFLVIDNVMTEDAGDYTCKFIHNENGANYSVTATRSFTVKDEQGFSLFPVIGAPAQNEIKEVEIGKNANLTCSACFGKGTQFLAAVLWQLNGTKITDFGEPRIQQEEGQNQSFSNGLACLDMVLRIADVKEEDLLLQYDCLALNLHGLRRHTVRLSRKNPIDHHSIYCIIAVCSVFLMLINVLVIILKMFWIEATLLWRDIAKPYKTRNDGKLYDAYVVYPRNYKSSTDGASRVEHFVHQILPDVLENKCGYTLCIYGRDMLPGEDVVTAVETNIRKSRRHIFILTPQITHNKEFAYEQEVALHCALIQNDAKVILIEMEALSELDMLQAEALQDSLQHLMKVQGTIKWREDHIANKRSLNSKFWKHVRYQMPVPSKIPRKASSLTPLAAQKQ
# assay_text: cell-based or functional assay
Listed here are binders together with their documented IC50, inhibition of activation of KU812-NF-κB reporter gene by IL33.
The response must be a number in µg/mL with no trailing unit.

Worked examples, 4 binders total:
{"binder": "5886-156-H1L0 (antibody, human IgG4 S228P, kappa, V domains shown, Humanized antibody expressed in CHO-K1, purified by protein A) VH: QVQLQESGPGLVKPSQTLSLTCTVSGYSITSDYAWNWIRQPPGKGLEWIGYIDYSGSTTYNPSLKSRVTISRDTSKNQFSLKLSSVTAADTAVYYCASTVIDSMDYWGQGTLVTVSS VL: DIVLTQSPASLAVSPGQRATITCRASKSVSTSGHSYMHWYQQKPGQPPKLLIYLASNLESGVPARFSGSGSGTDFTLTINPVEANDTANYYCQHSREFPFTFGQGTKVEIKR", "unit_descriptor": "µg/mL", "obs_value": 0.478}
{"binder": "5888-153-H1L2 (antibody, human IgG4 S228P, kappa, V domains shown) VH: QVQLVQSGAEVKKPGASVKVSCKASGYTFTDYELHWVRQAPGQGLEWMGTIDPETGDTVYNQKFKARVTMTADKSTSTAYMELSSLRSEDTAVYYCTRAFYNDYDDGFAYWGQGTLVTVSS VL: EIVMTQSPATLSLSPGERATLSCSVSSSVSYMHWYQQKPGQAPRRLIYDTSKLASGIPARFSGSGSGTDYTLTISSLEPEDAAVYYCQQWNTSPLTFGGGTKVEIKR", "unit_descriptor": "µg/mL", "obs_value": 0.0441}
{"binder": "Control antibody CNTO7160 (antibody, human IgG4 S228P, kappa, V domains shown, Known anti-ST2 control antibody) VH: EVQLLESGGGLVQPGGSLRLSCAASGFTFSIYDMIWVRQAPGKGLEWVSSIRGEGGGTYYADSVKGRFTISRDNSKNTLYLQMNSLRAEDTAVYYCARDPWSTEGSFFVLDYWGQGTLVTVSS VL: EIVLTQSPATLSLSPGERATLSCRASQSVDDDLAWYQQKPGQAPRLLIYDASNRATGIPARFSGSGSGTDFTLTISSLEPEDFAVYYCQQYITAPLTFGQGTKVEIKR", "unit_descriptor": "µg/mL", "obs_value": 0.2}
{"binder": "5888-116-H0L1 (antibody, human IgG4 S228P, kappa, V domains shown, Humanized antibody) VH: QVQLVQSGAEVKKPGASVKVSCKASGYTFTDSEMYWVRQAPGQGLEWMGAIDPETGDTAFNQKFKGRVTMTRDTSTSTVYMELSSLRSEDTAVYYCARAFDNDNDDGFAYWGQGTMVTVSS VL: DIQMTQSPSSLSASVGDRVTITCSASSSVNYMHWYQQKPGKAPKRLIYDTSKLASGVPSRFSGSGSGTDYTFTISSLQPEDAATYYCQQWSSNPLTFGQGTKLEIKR", "unit_descriptor": "µg/mL", "obs_value": 0.013}

Look at this binder and give its reported IC50, inhibition of activation of KU812-NF-κB reporter gene by IL33. 5887-41-H1L0 (antibody, human IgG4 S228P, kappa, V domains shown, Humanized antibody) VH: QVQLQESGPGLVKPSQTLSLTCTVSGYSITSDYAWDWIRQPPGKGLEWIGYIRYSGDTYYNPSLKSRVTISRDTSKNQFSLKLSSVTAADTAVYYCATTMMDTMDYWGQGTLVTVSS VL: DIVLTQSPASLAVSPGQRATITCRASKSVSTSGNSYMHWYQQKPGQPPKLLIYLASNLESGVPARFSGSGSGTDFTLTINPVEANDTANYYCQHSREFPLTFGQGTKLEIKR
0.0554
